Tested on: proteases in Pelophylax esculentus skin secretion
Type: in vitro ADME
Settings: sample 3: aqueous P. esculentus skin secretion, HCOOH added to final concentration 1%; LC-HRMS; all forms = 100%; one frog per sample
Bridges are numbered along the chain shown (N, C = ends). Where no end group is shown, it is not given here.
OBSERVABLE: Intact, % (%)
All answers are understood in %, so give the number only.

Take a look at these entries with their results.
[
  {
    "SUBSTANCE": "FFPAFLKVAAKVVPSXXCSITKKC-OH (disulfide) [Brev 1LE, Brevinin 1LE, natural disulfide skin peptide of Pelophylax esculentus, brevinin 1 family, 24 aa]",
    "SYSTEM NAME": "proteases in Pelophylax esculentus skin secretion",
    "OBSERVABLE": "Intact, %",
    "READING": 98.37
  },
  {
    "SUBSTANCE": "GIFSKLGRKKIKNLLISGLKNVGKEVGMDVVRTGIDIAGCKIKGEC (disulfide 40-46) [Escul 1, Esculentin 1]",
    "SYSTEM NAME": "proteases in Pelophylax esculentus skin secretion",
    "OBSERVABLE": "Intact, %",
    "READING": 72.22
  },
  {
    "SUBSTANCE": "GXFSKXAGKKXKNLXISGXKSVGKEVGMDVVRTGIDIAGCKIKGEC-OH (disulfide) [Escul 1R, Esculentin 1R, natural disulfide skin peptide of Pelophylax esculentus, esculentin 1 family, 46 aa]",
    "SYSTEM NAME": "proteases in Pelophylax esculentus skin secretion",
    "OBSERVABLE": "Intact, %",
    "READING": 84.41
  },
  {
    "SUBSTANCE": "GXLSTLKNVAKTAGKGALQSLLNAASCKLSGQC-OH (disulfide) [Brev 2L, Brevinin 2L, natural disulfide skin peptide of Pelophylax esculentus, brevinin 2 family, 33 aa]",
    "SYSTEM NAME": "proteases in Pelophylax esculentus skin secretion",
    "OBSERVABLE": "Intact, %",
    "READING": 95.26
  },
  {
    "SUBSTANCE": "GXWNTXKATGKSA ASNVAVTLLDKAKCK(LV)GEC-OH (disulfide) [Brev 2La, Brevinin 2La, natural disulfide skin peptide of Pelophylax esculentus, brevinin 2 family, 33 aa]",
    "SYSTEM NAME": "proteases in Pelophylax esculentus skin secretion",
    "OBSERVABLE": "Intact, %",
    "READING": 95.02
  }
]

Q: For the substance GXLDSLKNFAKDAAGILLKKASCKLSGQC-OH (disulfide) [Brev 2Ra, Brevinin 2Ra, natural disulfide skin peptide of Pelophylax esculentus, brevinin 2 family, 29 aa] , give its measured Intact, % value.
A: 98.70

Q: Report Intact, % for GXLDSLKNLAKNAAQILLNKASCKLSGQC-OH (disulfide) [Brev 2Rd, Brevinin 2Rd, natural disulfide skin peptide of Pelophylax esculentus, brevinin 2 family, 29 aa]
A: 97.77
